Hey, just so you know, these numbers are from patent US20230081426A1.

# target.or.system: G12V-mutant human KRAS (amino acid residues 1-188) (Homo sapiens, UniProt P01116, G12V)
# Construct: G12V-mutant human KRAS (amino acid residues 1-188) with FLAG tag was purified from E. coli; made in house; host or cells: E. coli
# assay.details: KRAS Binding Competition Assay (AlphaScreen; biotinylated KRpep-2d analogue), G12V
# experimental.context: geometric mean, read-out: KRAS GMean IC50 (uM) MUTATION: G12V
measurement.type: IC50

- compound: "CN1CCC[C@H]1COc1nc(N2[C@@H]3CC[C@H]2CNC3)c2ccc(-c3c(Cl)cccc3Cl)cc2n1"
  measurement.type: "IC50"
  observed: "10 to 100 µM"

Fill in IC50 for record CN1CCC[C@H]1COc1nc(N2C[C@H]3CC[C@@H](C2)N3)c2ccc(-c3cc(N)c(Cl)cc3Cl)cc2n1
100 to 1000 µM

Fill in IC50 for record O=C(O)CCc1nc(N2[C@@H]3CC[C@H]2CNC3)c2ccc(-c3cc(O)cc4ccccc34)cc2n1
10 to 100 µM

Fill in IC50 for record CN1CCC[C@H]1COc1nc(N2C[C@H]3CC[C@@H](C2)N3)c2cc(Cl)c(-c3c(O)cccc3F)c(F)c2n1
10 to 100 µM

Fill in IC50 for record CN1CCC[C@H]1COc1nc(N2CC3COCC(C2)N3C(=O)CC2SC(=O)NC2=O)c2cc(Cl)c(-c3cc(O)cc4ccccc34)c(F)c2n1 (some centres unmarked)
0.0001 to 10 µM

Fill in IC50 for record Cc1cc2cn[nH]c2cc1-c1ccc2c(N3C[C@H]4CC[C@@H](C3)N4)nc(OCC3CCCN3C)nc2c1 (some centres unmarked)
10 to 100 µM

Fill in IC50 for record CN1CC[C@@H](NC(=O)N2[C@H]3CC[C@@H]2CN(c2nc(OC[C@@H]4CCCN4C)nc4c(F)c(-c5cc(O)cc6ccccc56)ccc24)CC3)C1
10 to 100 µM

Fill in IC50 for record CN1CCC[C@H]1COc1nc(N2C[C@H]3CC[C@@H](C2)N3C(=O)CS(N)(=O)=O)c2ccc(-c3cc(O)cc4ccccc34)cc2n1
0.0001 to 10 µM

Fill in IC50 for record Cc1ccc2[nH]ncc2c1-c1c(Cl)cc2c(N3C[C@H]4CC[C@@H](C3)N4)nc(OC[C@@H]3CCCN3C)nc2c1F
100 to 1000 µM

Fill in IC50 for record Oc1cc(-c2ccc3c(N4[C@@H]5CC[C@H]4CNC5)nc(Nc4cccnc4)nc3c2)c2ccccc2c1
10 to 100 µM

Fill in IC50 for record Cc1n[nH]c2cc(-c3ccc4c(N5C[C@H]6CC[C@@H](C5)N6)nc(OC[C@@H]5CCCN5C)nc4c3)ccc12
10 to 100 µM

Fill in IC50 for record CN1CCc2c(cccc2Oc2nc(N3C[C@H]4CC[C@@H](C3)N4)c3cc(Cl)c(-c4c(O)cccc4F)c(F)c3n2)C1
10 to 100 µM

Fill in IC50 for record CN1CCC[C@H]1COc1nc(N2C[C@H]3CC[C@@H](C2)N3)c2cc(Cl)c(-c3cc(O)cc4ccccc34)c(F)c2n1
10 to 100 µM

Fill in IC50 for record CN1CCC[C@H]1COc1nc(N2C[C@H]3CC[C@@H](C2)N3CC(O)CO)c2ccc(-c3cc(O)cc4ccccc34)c(F)c2n1 (some centres unmarked)
0.0001 to 10 µM
